# Tested system: LILRA3 (human (not printed on the sheet), UniProt Q8N6C8)
# Sequence (Q8N6C8 24-439 limits assumed): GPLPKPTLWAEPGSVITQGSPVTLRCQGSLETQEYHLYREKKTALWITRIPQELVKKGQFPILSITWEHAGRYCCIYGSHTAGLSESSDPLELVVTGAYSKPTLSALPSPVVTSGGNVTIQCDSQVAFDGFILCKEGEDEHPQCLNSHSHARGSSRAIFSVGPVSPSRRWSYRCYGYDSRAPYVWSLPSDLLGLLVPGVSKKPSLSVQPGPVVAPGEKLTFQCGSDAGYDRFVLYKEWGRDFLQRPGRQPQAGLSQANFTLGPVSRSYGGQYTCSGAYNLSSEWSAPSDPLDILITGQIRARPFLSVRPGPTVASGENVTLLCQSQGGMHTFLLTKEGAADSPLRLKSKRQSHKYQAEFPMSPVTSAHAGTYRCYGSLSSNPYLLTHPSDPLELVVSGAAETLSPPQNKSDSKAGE
# Experiment notes: LILR reporter cells on coated antibody, GFP positive (%)
Quantity: binding result

h193 antibody No. 27 (h193-H5 / h193-K1) (antibody, V domains shown) VH: EVQLVESGGGLVQPGGSLRLSCAASGFSLSSSYWISWVRQAPGKGLEWIGVIDSGSVGITYYATWAKGRFTISRDNSKNTLYLQMNSLRAEDTAVYYCARHGDNWALDLWGQGTLVTVSS VL: DIQMTQSPSTLSASVGDRVTITCQASQSINSWLAWYQQKPGKAPKLLIYKASTLASGVPSRFSGSGSGTEFTLTISSLQPDDFATYYCQHGYIRGDLDNVFGGGTKVEIK | no binding
h193 antibody No. 37 (h193-H7 / h193-K3) (antibody, V domains shown) VH: EVQLVESGGGLVQPGGSLRLSCAASGFSLSSSYWISWVRQAPGKGLEWIGSIDSGSVGITYYATWVKGRFTISRDNSKNTLYLQMNSLRAEDTAVYYCARHGDNWALDLWGQGTLVTVSS VL: DIQMTQSPSTLSASVGDRVTITCRASQSINSWLAWYQQKPGKAPKLLIYKASTLASGVPSRFSGSGSGTEFTLTISSLQPDDFATYYCQHGYIRGDLDNVFGGGTKVEIK | no binding
h193 antibody No. 23 (h193-H4 / h193-K1) (antibody, V domains shown) VH: EVQLVESGGGLVQPGGSLRLSCAASGFSLSSSYWISWVRQAPGKGLEWVSSIDSGSVGITYYATWAKGRFTISRDNSKNTLYLQMNSLRAEDTAVYYCARHGDNWALDLWGQGTLVTVSS VL: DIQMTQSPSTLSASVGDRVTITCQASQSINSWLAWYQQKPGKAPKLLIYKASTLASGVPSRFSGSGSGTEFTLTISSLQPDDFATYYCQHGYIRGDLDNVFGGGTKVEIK | no binding

Source of measurements: patent US20210371518A1
